measurement-target: human TLR8 (Homo sapiens)
Sequence (Q9NR97 27-1041): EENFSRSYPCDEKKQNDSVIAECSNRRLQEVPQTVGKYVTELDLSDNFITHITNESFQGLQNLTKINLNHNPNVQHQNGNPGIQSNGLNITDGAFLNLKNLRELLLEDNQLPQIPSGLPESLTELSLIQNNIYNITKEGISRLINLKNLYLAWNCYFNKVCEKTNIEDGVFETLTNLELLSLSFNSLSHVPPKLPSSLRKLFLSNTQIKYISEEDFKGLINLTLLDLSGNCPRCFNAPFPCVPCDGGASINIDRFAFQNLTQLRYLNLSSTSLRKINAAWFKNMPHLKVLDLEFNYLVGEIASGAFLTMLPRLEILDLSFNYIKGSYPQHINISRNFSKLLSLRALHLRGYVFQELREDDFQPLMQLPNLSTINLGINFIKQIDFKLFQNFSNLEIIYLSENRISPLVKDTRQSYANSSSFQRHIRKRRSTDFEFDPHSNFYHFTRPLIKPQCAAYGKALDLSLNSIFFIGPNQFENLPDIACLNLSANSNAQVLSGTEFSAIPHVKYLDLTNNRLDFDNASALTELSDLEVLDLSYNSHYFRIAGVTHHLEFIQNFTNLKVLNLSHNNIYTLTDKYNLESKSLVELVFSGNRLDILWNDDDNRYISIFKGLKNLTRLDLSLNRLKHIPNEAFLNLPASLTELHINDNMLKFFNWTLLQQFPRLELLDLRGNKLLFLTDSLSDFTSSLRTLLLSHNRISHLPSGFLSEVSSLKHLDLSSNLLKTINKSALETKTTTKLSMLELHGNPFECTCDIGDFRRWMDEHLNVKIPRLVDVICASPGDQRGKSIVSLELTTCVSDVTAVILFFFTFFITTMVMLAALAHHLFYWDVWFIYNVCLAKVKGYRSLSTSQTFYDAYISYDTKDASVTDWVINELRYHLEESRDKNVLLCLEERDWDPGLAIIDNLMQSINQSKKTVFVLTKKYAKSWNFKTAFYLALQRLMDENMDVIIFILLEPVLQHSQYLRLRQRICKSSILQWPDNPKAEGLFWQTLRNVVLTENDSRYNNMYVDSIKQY
protocol-summary: TLR8 inhibition reporter assay (HEK-Blue SEAP)
assay-conditions: HEK-Blue cells overexpressing human TLR8, stimulated with R848 15.9 μM, 22 hour incubation
readout-type: log10 of IC50 (log10 of the value in nM)
Recorded IC50 (log10, nM)

// solved cases for log10 of IC50 follow
compound="Cc1cc(-c2[nH]c3ccc(OCC4CCN(CC(=O)N(C)C)CC4)cc3c2C(C)C)cn2ncnc12 [Example 86]" readout_type="log10 of IC50" observed_value=0.45
compound="Cc1cc(-c2[nH]c3ccc(OCC(=O)N4CCC5(CCNCC5)C4)cc3c2C(C)C)ccn1 [Example 144]" readout_type="log10 of IC50" observed_value=2.25
compound="Cc1cc(-c2[nH]c3ccc(O[C@H]4CCCN(C)C4)cc3c2C(C)C)cn2ncnc12 [Example 38]" readout_type="log10 of IC50" observed_value=1.43

Input: Write down the reported log10 of IC50 of Cc1c(-c2[nH]c3ccc(OC4CCN(C(C)C)CC4)cc3c2C(C)C)cn(C)c(=O)c1Cl [Example 45] , test system: human TLR8 (Homo sapiens).
Output: 0.34

Input: Same question, Cc1cc(-c2[nH]c3ccc(OC4CCC(OC5CCNCC5)CC4)cc3c2C(C)C)ccn1 (stereo not shown) [Example 184] this time
Output: 1.74
